Source of measurements: patent US20230381229A1

Would you kindly list Fortebio binding to PD-1-Fc Response Units (Response Units) for each of these binders?
biological target: PD-1-Fc (Homo sapiens); assay: ForteBio, PD-1-Fc
Sequence (chain, as listed by the source limits assumed): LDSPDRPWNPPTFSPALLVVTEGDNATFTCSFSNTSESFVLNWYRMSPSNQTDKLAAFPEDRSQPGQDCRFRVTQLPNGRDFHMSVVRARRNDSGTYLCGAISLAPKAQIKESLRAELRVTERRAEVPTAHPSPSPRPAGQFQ
One number for each entry.

>  <BINDER>
variant PD-L2 IgV-Fc G28V, Q72H, R76G, I86T (Fc fusion) LFTVTVPKELYIIEHGSNVTLECNFDTVSHVNLGAITASLQKVENDTSPHRERATLLEEQLPLGKASFHIPHVQVGDEGQYQCIITYGVAWDYKYLTLKVKA

>  <OBSERVED_MEASUREMENT>
0.003

$$$$

Field: next binder
Qu. Tell me the measured Fortebio binding to PD-1-Fc Response Units (Response Units) of variant PD-L2 IgV-Fc H15Q (Fc fusion) LFTVTVPKELYIIEQGSNVTLECNFDTGSHVNLGAITASLQKVENDTSPHRERATLLEEQLPLGKASFHIPQVQVRDEGQYQCIIIYGVAWDYKYLTLKVKA , please.
Ans. 0.007
